Origin of values: patent US20100248359A1

Target: T1, soluble form of GPC3 core protein (human, UniProt P51654 25-563)
T1 construct: not shown: His tag added to the C-terminus
T1 sequence (P51654 25-563 S495A/S509A, form in doubt): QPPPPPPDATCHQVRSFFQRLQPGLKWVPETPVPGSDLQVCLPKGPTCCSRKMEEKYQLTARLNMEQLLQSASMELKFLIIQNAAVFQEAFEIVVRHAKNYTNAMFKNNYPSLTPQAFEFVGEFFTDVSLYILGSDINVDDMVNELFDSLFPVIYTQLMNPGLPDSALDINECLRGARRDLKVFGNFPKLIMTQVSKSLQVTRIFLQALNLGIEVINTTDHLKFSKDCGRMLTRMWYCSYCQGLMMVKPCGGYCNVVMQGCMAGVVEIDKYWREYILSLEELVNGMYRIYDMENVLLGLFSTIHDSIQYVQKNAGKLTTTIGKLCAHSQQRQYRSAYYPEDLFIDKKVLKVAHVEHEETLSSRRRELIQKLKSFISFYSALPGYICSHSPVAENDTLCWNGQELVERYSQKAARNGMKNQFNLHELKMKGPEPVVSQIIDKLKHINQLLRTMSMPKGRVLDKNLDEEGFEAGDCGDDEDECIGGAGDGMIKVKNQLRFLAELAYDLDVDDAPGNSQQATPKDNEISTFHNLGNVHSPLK
Assay: competitive ELISA on coated soluble GPC3 core protein; labelled competitor biotin-M1E7;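 further: Biotin-labelled antibody added as 10 µL at 10 µg/mL for 1 h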
readout_kind: Inhibition of the binding of indicated biotin-Mab to sGPC3 core (%)

M11F1 (antibody, V domains shown, Mouse monoclonal from hybridoma) VH: QVTLKESGPGILQPSQTLSLTCSFSGFSLSIYGMGVGWIRQPSGKGLEWLANIWWNDDKYYNSALKSRLTISKDTSNNQVFLKISSVDTADTATYYCAQIGYFYFDYWGQGTTLTVSS VL: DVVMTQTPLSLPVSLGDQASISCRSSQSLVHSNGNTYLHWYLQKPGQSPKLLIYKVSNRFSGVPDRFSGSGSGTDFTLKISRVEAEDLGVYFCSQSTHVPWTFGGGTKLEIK; 3.9%
